- Tested on: GRABNE2m
- Procedure Details: Ligand selectivity of GRABNE2m expressed in HEK293T cells
- Format: cell-based
- Test Settings: HEK293T cells; trace amines and NE metabolites in full doses (Fig. S2C, S2D)
Quantity Name: fluorescence response of GRABNE2m to the ligand

COc1cc(C(O)CN)ccc1O (stereo not shown) = not respond
COc1cc(C(O)C(=O)O)ccc1O (stereo not shown) = not respond
COc1cc(C(O)CO)ccc1O (stereo not shown) [3-methoxy-4-hydroxyphenylglycol] = not respond
NCCc1ccccc1 = not respond
CC(C)NCC(O)c1ccc(O)c(O)c1 (stereo not shown) = do not respond
NCCCC(=O)O = do not respond

Please go through the list and note fluorescence response of GRABNE2m to the ligand for each compound.
1. NCCc1c[nH]cn1
2. NCCc1ccc(O)cc1
3. CC(=O)OCC[N+](C)(C)C
4. NCC(O)c1ccc(O)cc1 (stereo not shown)
5. NCCc1c[nH]c2ccc(O)cc12
6. Nc1ncnc2c1ncn2[C@@H]1O[C@H](CO)[C@@H](O)[C@H]1O

1. do not respond
2. not respond
3. do not respond
4. not respond
5. do not respond
6. do not respond

Lab note: GRABNE2m assay, enter fluorescence response of GRABNE2m to the ligand for N[C@@H](CCC(=O)O)C(=O)O [glutamate, L-Glutamic acid] here do not respond
